Molecular target: HLA-B*54:01
Assay: IEDB peptide-MHC binding, purified MHC/competitive/radioactivity; filed as Kd, often an IC50 or EC50 that approximates it; bounds were set here for any values at or beyond the usual limits of such assays
Details: source organism: SARS coronavirus Tor2
value_kind: Kd (µM)
Field: numeric (µM). Do not append units.

Example sequences with recorded Kd:
KPASRELSV    9.54
FPCSICLSGL    0.0652
HPNPKGFCDL    9.77

# input Request the reported Kd associated with `CPAEIVDTV`
# output 0.00999

----------
Biological target: HLA-A*02:02
Assay: IEDB peptide-MHC binding, purified MHC/competitive/radioactivity; filed as Kd, often an IC50 or EC50 that approximates it; bounds were set here for any values at or beyond the usual limits of such assays
Conditions: source organism: Vaccinia virus WR
pKd: −log10 of the molar value.
Hi, to clarify the labels: Y covers pKd from 6 upward, N covers anything below 6.

SITPNNLNKI    N

# input hey, is pKd for this one >= 6? `VILPDKIDGL`
# output N

# input Please check the record `MMNITRLEVI` and state if its pKd is at or above 6.
# output Y

# input Is pKd at least 6? Consider `YLGHSAGFTA`
# output Y

# input Could you verify whether the entry `ALALEQYGI` shows pKd of no less than 6?
# output Y

# input Decide: is the reported value of pKd for `RLYDYFTRVT` equal to or greater than 6?
# output N

# input Hi team, for `LLKETIQKDI` , is the recorded pKd at or above 6?
# output N

# input Hello, I need to know if `VQFSILNNPV` has measured pKd not below 6. Thanks!
# output Y

# input hey, is pKd for this one >= 6? `ETQSGALEVL`
# output N

# input API: above_or_equal(metric=pKd, cutoff=6) for item `STSNVITDQT`
# output N

----------
Target: HLA-B*07:02
Experiment: IEDB peptide-MHC binding, purified MHC/direct/fluorescence; filed as Kd, often an IC50 or EC50 that approximates it; bounds were set here for any values at or beyond the usual limits of such assays
Conditions: source organism: Cowpox virus
pKd: −log10 of the molar value.
value_kind: pKd

# input Given the entry `RHDITGFIL` , report its measured pKd.
# output ≤ 4.70

----------
Target: HLA-B*40:02
Assay: IEDB peptide-MHC binding, purified MHC/competitive/radioactivity; filed as Kd, often an IC50 or EC50 that approximates it; bounds were set here for any values at or beyond the usual limits of such assays
Details: source organism: SARS coronavirus Tor2
Recorded Kd determines the group label, using low value (below 0.06 µM), medium value (0.06 µM to below 0.3 µM), high value (0.3 µM or more)

IDFYLCFLAF    high value
REAPAHVST    low value

# input // bin(item) where item = `FDAWFSQRGG`
# output high value

# input Which class does `REEAIRHVRA` fall in?
# output high value

# input Which class holds `KEEILGTVSW` ?
# output medium value

# input Just checking, what class would you give `RELHLSWEVG` here?
# output medium value

# input Please report the category associated with `RELHLSWEV` , nothing else.
# output low value

# input State the band of `FELLNAPAT`
# output low value

# input // return the class label for `MEAQFLYLYA`
# output medium value

# input Sort `DESASKSASV` into one of the categories.
# output high value
